Cited source for all entries: ChEMBL document CHEMBL5032511

System: Human immunodeficiency virus 1
Assay: Anti-viral activity against HIV1 harboring RT K103N mutant infected […] cells assessed as protection against virus-induced cytopathic effect by MTT assay
Type: functional, organism-based
Details: Human immunodeficiency virus 1, MT4
EXPERIMENTAL_READOUT: EC50

These recorded examples may help you get a feel for the data.
-- ask Recorded EC50 for `N#Cc1ccc(Nc2nccc(Nc3c(F)cc(-c4coc5ccccc45)cc3F)n2)cc1` , please?
-- reply 1300 nM

-- ask Recorded EC50 for `N#Cc1ccc(Nc2nccc(Nc3c(F)cc(-c4ccc(N)cc4)cc3F)n2)cc1` , please?
-- reply 144 nM

As a next step, examine the compound that follows.
-- ask Recorded EC50 for `N#Cc1ccc(Nc2nccc(Nc3c(F)cc(-c4cncnc4)cc3F)n2)cc1` , please?
-- reply 326 nM

---

Experiment: in vitro
Settings: human, liver microsomes
EXPERIMENTAL_READOUT: microsomal CLint at 1 µM
# answer = value followed by unit

-- ask Recorded microsomal CLint at 1 µM for `Cl.N#Cc1ccc(Nc2nccc(Nc3c(F)cc(-c4ccncc4)cc3F)n2)cc1` , please?
-- reply 28 µL/min/mg

---

Experiment: Half life in Sprague-Dawley rat at 1 mg/kg, iv by LCMS analysis
Format: ADME, organism-based
Details: in vivo
EXPERIMENTAL_READOUT: half-life (min)
One number for each entry, in min.

-- ask Recorded half-life for `Cl.N#Cc1ccc(Nc2nccc(Nc3c(F)cc(-c4ccncc4)cc3F)n2)cc1` , please?
-- reply 45.6

---

System: Human immunodeficiency virus 1
Assay: Antiviral activity against HIV1 IIIB infected human MT4 cells assessed as protection against virus-induced cytopathic effect by MTT assay
Format: functional, organism-based
Settings: Human immunodeficiency virus 1, IIIB
Consider the following compounds; for each one, report its EC50.
Give bare numbers, in nM.

These recorded examples may help you get a feel for the data.
-- ask Recorded EC50 for `N#Cc1ccc(Nc2nccc(Nc3c(F)cc(-c4ccc(N)cc4)cc3F)n2)cc1` , please?
-- reply 9.2

-- ask Recorded EC50 for `N#Cc1ccc(Nc2nccc(Nc3c(F)cc(-c4cccs4)cc3F)n2)cc1` , please?
-- reply 4.1

-- ask Recorded EC50 for `Cc1cc(C#Cc2ccccn2)cc(C)c1Oc1ccnc(Nc2ccc(C#N)cc2)n1` , please?
-- reply 3

-- ask Recorded EC50 for `N#Cc1ccc(Nc2nccc(Nc3c(F)cc(-c4cn[nH]c4)cc3F)n2)cc1` , please?
-- reply 10

-- ask Recorded EC50 for `N#Cc1ccc(Nc2nccc(Nc3c(F)cc(-c4ccnc(Cl)c4)cc3F)n2)cc1` , please?
-- reply 6.8

As a next step, examine the compound that follows.
-- ask Recorded EC50 for `N#Cc1ccc(Nc2nccc(Nc3c(F)cc(-c4ccc(C#N)cc4)cc3F)n2)cc1` , please?
-- reply 1

---

Assay: Aqueous solubility of compound in PBS at pH 7.4 by HPLC-UV analysis
Settings: PBS
EXPERIMENTAL_READOUT: solubility

-- ask Recorded solubility for `Cc1cc(C#N)cc(C)c1Oc1nc(Nc2ccc(C#N)cc2)nc(N)c1Br` , please?
-- reply < 1 µg/mL

---

Consider the following compounds; for each one, report its pEC50.
Test system: Human immunodeficiency virus 1
Assay: Anti-viral activity against HIV1 harboring RT L100I mutant infected […] cells assessed as protection against virus-induced cytopathic effect by MTT assay
Type: functional, organism-based
Conditions: Human immunodeficiency virus 1, MT4
Give bare numbers, as −log10 of the molar value.

-- ask Quick check: pEC50 on Human immunodeficiency virus 1, item `N#Cc1ccc(Nc2nccc(Nc3c(F)cc(-c4cccs4)cc3F)n2)cc1` ?
-- reply 6.44

-- ask Quick check: pEC50 on Human immunodeficiency virus 1, item `N#Cc1ccc(Nc2nccc(Nc3c(F)cc(-c4ccnc(F)c4)cc3F)n2)cc1` ?
-- reply 6.40

-- ask Quick check: pEC50 on Human immunodeficiency virus 1, item `N#Cc1ccc(Nc2nccc(Nc3c(F)cc(-c4ccncc4F)cc3F)n2)cc1` ?
-- reply 8.13

Give pEC50 for each listed item.
1. Cc1cc(-c2cc(F)c(Nc3ccnc(Nc4ccc(C#N)cc4)n3)c(F)c2)ccn1
2. N#Cc1ccc(Nc2nccc(Nc3c(F)cc(-c4ccnc(F)c4F)cc3F)n2)cc1
3. N#Cc1ccc(Nc2nccc(Nc3c(F)cc(-c4ccoc4)cc3F)n2)cc1
4. N#Cc1ccc(Nc2nccc(Nc3c(F)cc(-c4ccncc4)cc3F)n2)cc1
5. N#Cc1ccc(Nc2nccc(Nc3c(F)cc(-c4cc(F)nc(F)c4)cc3F)n2)cc1

-- reply
6.42
7.20
7.00
7.69
6.05

---

System: Human immunodeficiency virus 1
Assay: Anti-viral activity against HIV1 harboring RT K103N mutant infected […] cells assessed as protection against virus-induced cytopathic effect by MTT assay
Type: functional, organism-based
Details: Human immunodeficiency virus 1, MT4
Consider the following compounds; for each one, report its EC50.
One number for each entry, in nM.

-- ask Recorded EC50 for `N#Cc1ccc(Nc2nccc(Nc3c(F)cc(-c4ccsc4)cc3F)n2)cc1` , please?
-- reply 171

-- ask Recorded EC50 for `N#Cc1ccc(Nc2nccc(Nc3c(F)cc(-c4ccncc4F)cc3F)n2)cc1` , please?
-- reply 1.9

-- ask Recorded EC50 for `N#Cc1ccc(Nc2nccc(Nc3c(F)cc(-c4cccs4)cc3F)n2)cc1` , please?
-- reply 102

-- ask Recorded EC50 for `N#Cc1ccc(Nc2nccc(Nc3c(F)cc(-c4ccnc(Cl)c4Cl)cc3F)n2)cc1` , please?
-- reply 48

-- ask Recorded EC50 for `N#Cc1ccc(Nc2nccc(Nc3c(F)cc(-c4ccnc(F)c4)cc3F)n2)cc1` , please?
-- reply 42

-- ask Recorded EC50 for `N#Cc1ccc(Nc2nccc(Nc3c(F)cc(-c4cc(F)nc(F)c4)cc3F)n2)cc1` , please?
-- reply 199

-- ask Recorded EC50 for `N#Cc1ccc(Nc2nccc(Nc3c(F)cc(-c4csc5ccccc45)cc3F)n2)cc1` , please?
-- reply 5790

-- ask Recorded EC50 for Cc1cc(C#N)cc(C)c1Oc1nc(Nc2ccc(C#N)cc2)nc(N)c1Br [ETRAVIRINE] , please?
-- reply 3.4

-- ask Recorded EC50 for `N#Cc1ccc(Nc2nccc(Nc3c(F)cc(-c4cccnc4)cc3F)n2)cc1` , please?
-- reply 223

As a next step, examine the compound that follows.
-- ask Recorded EC50 for `N#Cc1ccc(Nc2nccc(Nc3c(F)cc(-c4cn[nH]c4)cc3F)n2)cc1` , please?
-- reply 251

---

Consider the following compounds; for each one, report its CC50.
Assay: Cytotoxicity against mock infected human MT4 cells by MTT assay
Give bare numbers, in µM.

These recorded examples may help you get a feel for the data.
-- ask Recorded CC50 for `N#Cc1ccc(Nc2nccc(Nc3c(F)cc(-c4ccnc(-c5ccnc(Cl)c5)c4)cc3F)n2)cc1` , please?
-- reply 51

-- ask Recorded CC50 for `N#Cc1ccc(Nc2nccc(Nc3c(F)cc(-c4cn[nH]c4)cc3F)n2)cc1` , please?
-- reply 3.1

-- ask Recorded CC50 for `N#Cc1ccc(Nc2nccc(Nc3c(F)cc(-c4ccnc(Cl)c4Cl)cc3F)n2)cc1` , please?
-- reply 20

-- ask Recorded CC50 for `N#Cc1ccc(Nc2nccc(Nc3c(F)cc(-c4ccco4)cc3F)n2)cc1` , please?
-- reply 16.6

As a next step, examine the compound that follows.
-- ask Recorded CC50 for `N#Cc1ccc(Nc2nccc(Nc3c(F)cc(-c4cccnc4)cc3F)n2)cc1` , please?
-- reply 242

---

Tested on: Human immunodeficiency virus 1
Assay: Anti-viral activity against HIV1 harboring RT L100I mutant infected […] cells assessed as protection against virus-induced cytopathic effect by MTT assay
Type: functional, organism-based
Settings: Human immunodeficiency virus 1, MT4
Consider the following compounds; for each one, report its EC50.
Numbers only, in nM.

These recorded examples may help you get a feel for the data.
-- ask Recorded EC50 for `COc1cc(-c2cc(F)c(Nc3ccnc(Nc4ccc(C#N)cc4)n3)c(F)c2)ccn1` , please?
-- reply 645

-- ask Recorded EC50 for `N#Cc1ccc(Nc2nccc(Nc3c(F)cc(-c4ccco4)cc3F)n2)cc1` , please?
-- reply 86

-- ask Recorded EC50 for `N#Cc1ccc(Nc2nccc(Nc3c(F)cc(-c4ccnc(Cl)c4)cc3F)n2)cc1` , please?
-- reply 415

-- ask Recorded EC50 for `N#Cc1ccc(Nc2nccc(Nc3c(F)cc(-c4ccc(N)cc4)cc3F)n2)cc1` , please?
-- reply 561

-- ask Recorded EC50 for `N#Cc1ccc(Nc2nccc(Nc3c(F)cc(-c4ccnc(Cl)c4Cl)cc3F)n2)cc1` , please?
-- reply 325

Give EC50 for each listed item.
1. N#Cc1ccc(Nc2nccc(Nc3c(F)cc(-c4ccsc4)cc3F)n2)cc1
2. N#Cc1ccc(Nc2nccc(Nc3c(F)cc(-c4coc5ccccc45)cc3F)n2)cc1
3. N#Cc1ccc(Nc2nccc(Nc3c(F)cc(-c4csc5ccccc45)cc3F)n2)cc1
4. N#Cc1ccc(Nc2nccc(Nc3c(F)cc(-c4cccnc4)cc3F)n2)cc1
5. N#Cc1ccc(Nc2nccc(Nc3c(F)cc(-c4ccnc(-c5ccnc(Cl)c5)c4)cc3F)n2)cc1
6. N#Cc1ccc(Nc2nccc(Nc3c(F)cc(-c4cncnc4)cc3F)n2)cc1
7. N#Cc1ccc(Nc2nccc(Nc3c(F)cc(-c4ccnc(C#N)c4F)cc3F)n2)cc1

-- reply
[301, 3450, 6450, 583, 1150, 1790, 80]
